Tested on: Plasmodium falciparum
assay: Antimalarial activity against Plasmodium falciparum K1
Assay type: functional, organism-based
reported-endpoint: IC50 (ng/mL)
Express your answer in ng/mL, writing the number without its unit.

[in] Fill in: IC50 of CCCCCCCCS(=O)(=O)N1C(=O)[C@H](C)[C@@H]2CC[C@@H](C)[C@@H]3CC[C@]4(C)OO[C@]32[C@H]1O4 is ___
[out] 1.1

[in] Moving on to C[C@@H]1CC[C@H]2[C@@H](C)C(=O)N(C(=O)c3ccc([N+](=O)[O-])cc3)[C@@H]3O[C@]4(C)CC[C@@H]1[C@@]23OO4
[out] 0.6

[in] Moving on to C[C@@H]1CC[C@H]2[C@@H](C)C(=O)N(S(=O)(=O)c3cccc([N+](=O)[O-])c3)[C@@H]3O[C@]4(C)CC[C@@H]1[C@@]23OO4
[out] 2.2

[in] Moving on to C[C@@H]1CC[C@H]2[C@@H](C)C(=O)N(C(=O)Cc3ccc([N+](=O)[O-])cc3)[C@@H]3O[C@]4(C)CC[C@@H]1[C@@]23OO4
[out] 0.4

[in] Moving on to C[C@@H]1CC[C@H]2[C@@H](C)C(=O)N(S(=O)(=O)c3ccc4ccccc4c3)[C@@H]3O[C@]4(C)CC[C@@H]1[C@@]23OO4
[out] 0.2

[in] Moving on to C[C@@H]1CC[C@H]2[C@@H](C)C(=O)N(S(=O)(=O)c3cccc4cccnc34)[C@@H]3O[C@]4(C)CC[C@@H]1[C@@]23OO4
[out] 2

[in] Moving on to C[C@@H]1CC[C@H]2[C@@H](CCCc3cc(C(F)(F)F)cc(C(F)(F)F)c3)C(=O)O[C@@H]3O[C@]4(C)CC[C@@H]1[C@]32OO4
[out] 4.06

[in] Moving on to C[C@@H]1CC[C@H]2[C@@H](C)C(=O)N(C(=O)c3cccc([N+](=O)[O-])c3)[C@@H]3O[C@]4(C)CC[C@@H]1[C@@]23OO4
[out] 0.6
